Measured kon values are reported for all entries that follow.
- TARGET: T1, human MSLN-FL-his protein (human, UniProt Q13421 296-580)
- T1 construct: made in HEK293E cells, purified on nickel column; also called hMSLN-FL-his; human MSLN full-length protein; not shown: His tag
- T1 sequence (Q13421 other isoform, or with tags, fused parts or gaps): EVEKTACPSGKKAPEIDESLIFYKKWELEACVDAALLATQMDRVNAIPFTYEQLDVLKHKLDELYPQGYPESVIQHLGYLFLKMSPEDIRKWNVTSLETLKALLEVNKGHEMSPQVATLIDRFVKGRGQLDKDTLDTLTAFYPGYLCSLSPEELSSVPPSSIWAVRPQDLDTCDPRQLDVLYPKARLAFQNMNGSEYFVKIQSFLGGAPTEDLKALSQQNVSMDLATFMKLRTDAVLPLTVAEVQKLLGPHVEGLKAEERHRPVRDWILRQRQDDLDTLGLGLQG
- MEASUREMENT PROTOCOL: SPR (Biacore), antibody captured on Protein A chip;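 also: flow cell at 25 °C, antigen injected for 240 s at five concentrations from 200 nM downward, dissociation followed up to 600 s, double-referenced, fitted with Langmuir 1:1 model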
Number in M⁻¹ s⁻¹, nothing else.

Here is how some binders turned out for kon.
Q) Give the reported kon for this binder. S009-F7.69.8 (antibody, human IgG1, kappa, V domains shown, human-murine chimeric antibody, human IgG1/kappa constant regions) VH: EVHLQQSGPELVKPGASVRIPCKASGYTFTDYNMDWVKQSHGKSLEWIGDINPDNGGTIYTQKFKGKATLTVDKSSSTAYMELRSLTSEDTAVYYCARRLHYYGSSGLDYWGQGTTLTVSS VL: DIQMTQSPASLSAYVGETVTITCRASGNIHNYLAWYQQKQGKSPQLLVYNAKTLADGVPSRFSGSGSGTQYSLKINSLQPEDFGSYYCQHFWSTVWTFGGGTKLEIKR
A) 687000

Q) Give the reported kon for this binder. S009-F8-18.9 (antibody, human IgG1, kappa, V domains shown, human-murine chimeric antibody, human IgG1/kappa constant regions) VH: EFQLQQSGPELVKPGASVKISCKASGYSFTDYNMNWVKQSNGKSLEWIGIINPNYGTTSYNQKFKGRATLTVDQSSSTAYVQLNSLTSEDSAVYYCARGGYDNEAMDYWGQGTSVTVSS VL: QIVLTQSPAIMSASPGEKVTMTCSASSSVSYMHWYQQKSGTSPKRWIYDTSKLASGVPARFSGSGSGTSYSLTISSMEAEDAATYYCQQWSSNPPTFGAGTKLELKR
A) 276000

Continuing:
Q) Give the reported kon for this binder. S009-F8-36.12 (antibody, human IgG1, kappa, V domains shown, human-murine chimeric antibody, human IgG1/kappa constant regions) VH: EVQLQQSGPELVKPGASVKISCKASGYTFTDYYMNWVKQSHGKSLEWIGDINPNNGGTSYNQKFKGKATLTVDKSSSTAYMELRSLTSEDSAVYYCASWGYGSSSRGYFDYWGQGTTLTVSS VL: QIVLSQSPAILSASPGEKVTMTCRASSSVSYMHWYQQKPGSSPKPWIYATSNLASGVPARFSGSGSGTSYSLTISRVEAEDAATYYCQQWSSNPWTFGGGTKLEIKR
A) 118000

The values you see were collected from patent US20250250357A1.
